target: PDGF-α receptor (Homo sapiens, UniProt P16234); construct: cultures of human foreskin fibroblast cell line AG1518; endogenous in cells; host or cells: AG1518 human foreskin fibroblasts; test: Competition with 125I-PDGF-AA for binding to AG1518 fibroblasts; conditions: α receptor, read-out: 50% competition for receptor binding
Sequence (P16234 24-1089): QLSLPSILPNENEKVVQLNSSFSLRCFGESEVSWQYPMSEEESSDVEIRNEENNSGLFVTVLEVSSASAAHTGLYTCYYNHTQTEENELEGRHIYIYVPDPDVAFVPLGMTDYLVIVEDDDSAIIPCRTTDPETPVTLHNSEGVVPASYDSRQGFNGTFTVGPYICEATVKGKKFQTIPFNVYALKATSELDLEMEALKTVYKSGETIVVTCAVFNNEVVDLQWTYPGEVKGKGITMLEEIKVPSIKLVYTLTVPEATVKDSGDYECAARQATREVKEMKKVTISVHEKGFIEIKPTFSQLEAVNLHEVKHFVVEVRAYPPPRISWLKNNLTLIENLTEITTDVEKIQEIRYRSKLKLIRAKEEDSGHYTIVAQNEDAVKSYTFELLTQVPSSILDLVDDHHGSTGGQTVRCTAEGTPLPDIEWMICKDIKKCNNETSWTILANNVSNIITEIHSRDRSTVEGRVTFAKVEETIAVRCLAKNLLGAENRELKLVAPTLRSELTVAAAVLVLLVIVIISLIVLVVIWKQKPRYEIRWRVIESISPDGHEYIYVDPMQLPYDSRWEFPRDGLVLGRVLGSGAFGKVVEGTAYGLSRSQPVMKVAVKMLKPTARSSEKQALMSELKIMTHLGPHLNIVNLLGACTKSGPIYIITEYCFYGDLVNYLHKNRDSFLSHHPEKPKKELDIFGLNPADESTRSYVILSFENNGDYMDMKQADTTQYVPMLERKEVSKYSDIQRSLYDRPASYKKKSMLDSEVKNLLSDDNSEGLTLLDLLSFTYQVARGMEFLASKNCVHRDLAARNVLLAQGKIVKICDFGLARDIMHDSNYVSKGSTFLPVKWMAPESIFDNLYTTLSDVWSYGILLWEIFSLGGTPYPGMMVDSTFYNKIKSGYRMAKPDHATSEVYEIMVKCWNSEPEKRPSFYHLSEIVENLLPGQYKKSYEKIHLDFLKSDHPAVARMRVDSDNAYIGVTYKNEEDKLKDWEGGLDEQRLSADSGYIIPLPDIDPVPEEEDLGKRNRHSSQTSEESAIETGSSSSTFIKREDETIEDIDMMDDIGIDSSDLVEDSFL
pIC50: −log10 of the molar value. Ends that are not written are not given here.
measured.quantity: pIC50

residue_codes="ANFLVWPPCVEVQLRPVQVRKIEIVRKKP [Peptide 7]" measured_quantity=pIC50 result=~5.22

* * *

target: PDGF-β receptor (Homo sapiens, UniProt P09619); construct: cultures of human foreskin fibroblast cell line AG1518; endogenous in cells; host or cells: AG1518 human foreskin fibroblasts (Human Mutant Cell Repository); assay: Competition with 125I-PDGF-BB for binding to AG1518 fibroblasts (α receptor down regulated by PDGF-AA preincubation); details: β receptor, read-out: 50% competition for receptor binding
Sequence (P09619 33-1106): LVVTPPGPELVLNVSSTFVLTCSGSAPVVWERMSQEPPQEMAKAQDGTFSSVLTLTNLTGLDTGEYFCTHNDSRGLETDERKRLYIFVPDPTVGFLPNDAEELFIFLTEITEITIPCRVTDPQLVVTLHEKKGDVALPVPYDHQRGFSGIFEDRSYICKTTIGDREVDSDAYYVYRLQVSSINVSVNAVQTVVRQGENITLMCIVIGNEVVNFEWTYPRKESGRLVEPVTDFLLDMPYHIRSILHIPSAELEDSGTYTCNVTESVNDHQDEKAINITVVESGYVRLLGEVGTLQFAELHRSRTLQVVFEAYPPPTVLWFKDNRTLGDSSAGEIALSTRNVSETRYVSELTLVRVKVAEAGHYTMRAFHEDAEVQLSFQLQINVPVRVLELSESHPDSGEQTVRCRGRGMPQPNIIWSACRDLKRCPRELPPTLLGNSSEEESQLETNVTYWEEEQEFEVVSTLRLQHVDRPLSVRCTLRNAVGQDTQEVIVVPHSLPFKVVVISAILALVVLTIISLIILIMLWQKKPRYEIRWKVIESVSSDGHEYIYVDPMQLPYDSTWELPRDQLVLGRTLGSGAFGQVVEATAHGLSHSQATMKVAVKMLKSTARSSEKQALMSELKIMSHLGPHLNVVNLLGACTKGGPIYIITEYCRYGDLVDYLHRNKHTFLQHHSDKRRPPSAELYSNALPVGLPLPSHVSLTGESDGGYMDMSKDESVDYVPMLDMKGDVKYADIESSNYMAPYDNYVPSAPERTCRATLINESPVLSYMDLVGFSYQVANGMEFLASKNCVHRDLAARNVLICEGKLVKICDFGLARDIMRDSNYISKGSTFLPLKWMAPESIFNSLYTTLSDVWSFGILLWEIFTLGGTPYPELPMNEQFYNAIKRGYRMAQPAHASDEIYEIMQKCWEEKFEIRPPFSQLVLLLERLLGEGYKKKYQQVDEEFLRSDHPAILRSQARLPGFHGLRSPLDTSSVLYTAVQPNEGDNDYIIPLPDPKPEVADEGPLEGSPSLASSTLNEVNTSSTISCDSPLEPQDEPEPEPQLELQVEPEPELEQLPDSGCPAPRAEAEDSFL
Ends that are not written are not given here.
measured.quantity: IC50

residue_codes="ANFLVWPPCVEVQLRPVQVRKIEIVRKKP [Peptide 7]" result="~6 µM"
